Target: N-glycosylase/DNA lyase (Homo sapiens)
Sequence (O15527 whole entry): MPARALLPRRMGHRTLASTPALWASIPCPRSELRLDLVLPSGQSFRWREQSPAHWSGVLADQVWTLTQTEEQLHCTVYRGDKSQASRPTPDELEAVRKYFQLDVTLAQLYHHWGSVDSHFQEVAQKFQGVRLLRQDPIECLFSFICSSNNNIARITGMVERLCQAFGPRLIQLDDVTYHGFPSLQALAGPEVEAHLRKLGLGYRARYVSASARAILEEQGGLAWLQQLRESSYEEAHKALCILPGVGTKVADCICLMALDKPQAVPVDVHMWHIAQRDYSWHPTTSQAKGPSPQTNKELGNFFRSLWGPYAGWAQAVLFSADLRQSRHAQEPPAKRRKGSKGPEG
Test: Activation of OGG1 (unknown origin) by fluorescence-based assay
Endpoint Label: EC50 (µM)
Write the answer as a number in µM, unit excluded.

Quote N-glycosylase/DNA lyase (Homo sapiens) EC50 for entry `c1ccc2c(NC3CCCCC3)nc(C3CC3)nc2c1` . 0.78

Quote N-glycosylase/DNA lyase (Homo sapiens) EC50 for entry OC(Cn1ccnc1)(c1ccc(Cl)cc1Cl)C1CCCCC1 (stereo not given) . 5

Quote N-glycosylase/DNA lyase (Homo sapiens) EC50 for entry `Cc1cc(N[C@@H](C)C(=O)Nc2ccccc2)nc(Nc2ccccc2)n1` . 4.1

Quote N-glycosylase/DNA lyase (Homo sapiens) EC50 for entry Cc1cnc(N2CCN3CCCC3C2)nc1Oc1ccc(-n2ccnc2)cc1 (stereo not given) . 4.6

Quote N-glycosylase/DNA lyase (Homo sapiens) EC50 for entry `CNc1nnc(C)c2c1cc(-c1ccc(F)cc1)n2C` . 5.1

###

Target: UniProt Q9BYF1
Sequence (Q9BYF1 whole entry): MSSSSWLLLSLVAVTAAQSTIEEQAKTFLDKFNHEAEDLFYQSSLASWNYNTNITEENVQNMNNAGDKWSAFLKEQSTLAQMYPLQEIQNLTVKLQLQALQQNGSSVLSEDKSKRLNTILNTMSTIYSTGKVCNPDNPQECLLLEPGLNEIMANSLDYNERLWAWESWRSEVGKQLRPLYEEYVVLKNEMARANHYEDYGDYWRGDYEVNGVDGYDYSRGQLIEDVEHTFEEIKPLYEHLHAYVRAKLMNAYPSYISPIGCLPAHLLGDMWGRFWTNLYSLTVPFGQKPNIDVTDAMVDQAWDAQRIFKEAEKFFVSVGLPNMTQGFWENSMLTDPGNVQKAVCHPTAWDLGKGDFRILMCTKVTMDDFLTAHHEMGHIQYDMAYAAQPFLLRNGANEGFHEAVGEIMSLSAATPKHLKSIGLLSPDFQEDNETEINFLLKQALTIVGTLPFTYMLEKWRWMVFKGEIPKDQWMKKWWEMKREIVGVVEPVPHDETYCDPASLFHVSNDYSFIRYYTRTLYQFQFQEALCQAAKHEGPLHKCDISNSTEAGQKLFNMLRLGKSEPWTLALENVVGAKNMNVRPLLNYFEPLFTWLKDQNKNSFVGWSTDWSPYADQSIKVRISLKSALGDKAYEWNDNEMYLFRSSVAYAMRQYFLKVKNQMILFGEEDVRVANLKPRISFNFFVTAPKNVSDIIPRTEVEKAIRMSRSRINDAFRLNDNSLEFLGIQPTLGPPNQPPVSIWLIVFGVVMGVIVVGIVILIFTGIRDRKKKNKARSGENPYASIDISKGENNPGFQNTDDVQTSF
Experiment: Activation of recombinant human ACE2 using McaAPK(Dnp)-OH as substrate preincubated for 15 mins followed by substrate addition spectra max Gemini M5 fluorescence plate reader analysis
Endpoint Label: EC50 (µM)
Write the answer as a number in µM, unit excluded.

Identify measured EC50 associated with N=C(N)c1ccc(/N=N/Nc2ccc(C(=N)N)cc2)cc1 [DIMINAZENE] 8.04

Identify measured EC50 associated with O=C1OC2(c3ccc(O)cc3Oc3cc(O)ccc32)c2ccccc21 [FLUORESCEIN] 19.5

###

System: NCI-H3255
Experiment: Cytotoxicity against TKI-sensitive LUAD immortalized human NCI-H3255 cells assessed as inhibition of cell growth incubated for 48 hrs by Beckman Coulter cell counter analysis
Type: functional, cell-based
Settings: NCI-H3255, 48 h
Endpoint Label: pIC50
// pIC50 here means minus log10 of the molar concentration (mol/L)

Identify measured pIC50 associated with O=S(=O)(N[C@@H]1CCCC(N2c3ccccc3Oc3ccccc32)[C@H]1O)c1ccc(OC(F)(F)F)cc1 (stereo partly specified) 4.91
